PROTOCOL SUMMARY: in vivo
CONDITION INFO: rat, po
MEASURED QUANTITY: bioavailability (%)
One number for each entry, in %.

Q: # input compound: `N#Cc1cnc(Nc2cc(NC[C@H]3CNCCO3)c(C(F)(F)F)cn2)cn1` ; wanted: its bioavailability
Result: 38

----------
PROTOCOL SUMMARY: in vivo
CONDITION INFO: mouse, iv, 10 mg/kg
MEASURED QUANTITY: Vd (L/kg)
Give bare numbers, in L/kg.

Worked examples follow.
INSERT INTO results (compound, measured_number) VALUES
  ('CC(C)(O)C#Cc1cnc(Nc2cnc(C#N)cn2)cc1NC[C@@H]1CNCCO1', 10.4),
  ('N#Cc1cnc(Nc2cc(NC[C@H]3CNCCO3)c(C(F)(F)F)cn2)cn1 [SRA-737]', 9.25),
  ('N#Cc1cnc(Nc2cc(NC[C@@H]3CNCCO3)c(C3CC3)cn2)cn1', 43.9);

Q: What Vd value was documented for this compound, `N#Cc1cnc(Nc2cc(NC[C@H]3CNCCO3)c(-c3cccc(F)c3)cn2)cn1` ?
Result: 26.8
